# target_under_test: APOL1 (Homo sapiens)
# Sequence (O14791 1-398): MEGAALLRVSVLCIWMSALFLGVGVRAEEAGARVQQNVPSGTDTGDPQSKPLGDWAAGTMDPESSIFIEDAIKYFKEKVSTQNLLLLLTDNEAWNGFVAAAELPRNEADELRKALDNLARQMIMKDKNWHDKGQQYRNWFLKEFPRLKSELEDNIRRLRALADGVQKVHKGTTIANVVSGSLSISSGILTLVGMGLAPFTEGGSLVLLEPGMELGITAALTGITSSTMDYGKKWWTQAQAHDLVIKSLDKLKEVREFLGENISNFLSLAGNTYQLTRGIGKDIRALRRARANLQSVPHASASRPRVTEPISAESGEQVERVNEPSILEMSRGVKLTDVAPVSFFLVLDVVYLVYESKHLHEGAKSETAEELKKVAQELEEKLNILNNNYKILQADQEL
# test: MultiTox-Fluor Multiplex Cytotoxicity Assay, tet-inducible APOL1 T-REx-HEK293 cells (G0, G1 or G2 clone not specified for Table 20)
# condition_description: tet-induced, 24 hours with compound, ratio of dead to live cells, read-out: IP50 (i.e., IC50 for cell proliferation)
pIC50: −log10 of the molar value.
# Lookup of reported pIC50 keyed by entry
property_name: pIC50

[[record]]
compound = "NC(=O)C1OC2(CCN(Cc3cncnc3)CC2)c2cc(Cl)ccc21 (stereo not shown) [Compound 252]"
property_name = "pIC50"
val = "≤ 6.30"

[[record]]
compound = "CS(=O)(=O)CCn1cc(CN2CCC3(CC2)C(=O)N(C2COC2)c2ccc(Cl)cc23)cn1 [Compound 49]"
property_name = "pIC50"
val = "6.30 to 7.30"

[[record]]
compound = "Cc1ccc2c(c1)C1(CCN(Cc3cn(CCS(C)(=O)=O)nn3)[C@@H](C)C1)OC2(C)C (single isomer, unassigned) [Compound 290]"
property_name = "pIC50"
val = "≤ 6.30"

[[record]]
compound = "CCNC(=O)NCCn1cc(CN2CC[C@]3(C[C@@H]2C)OCCc2ccc(Cl)cc23)nn1 [Compound 173]"
property_name = "pIC50"
val = "≥ 7.30"

[[record]]
compound = "C[C@H]1C[C@@]2(CCN1Cc1cn(CC3(C(N)=O)CC3)nn1)OCCc1ccc(Cl)cc12 [Compound 188]"
property_name = "pIC50"
val = "≥ 7.30"

[[record]]
compound = "C[C@H]1C[C@@]2(CCN1Cc1cnn(C)c1)OCC(O)c1ccc(Cl)cc12 (stereo partly shown) [Compound 134]"
property_name = "pIC50"
val = "≥ 7.30"

[[record]]
compound = "C[C@H]1C[C@@]2(CCN1Cc1cn(CCc3nccc(=O)[nH]3)nn1)OCCc1ccc(Cl)cc12 [Compound 183]"
property_name = "pIC50"
val = "6.30 to 7.30"

